target: ALK (Homo sapiens (Human)); assay: In vitro kinase activity assay (LANCE TR-FRET); type: biochemical; conditions: read-out: GTx-ALK IC50
The following compounds are listed with their measured IC50 values.

CC(Cc1c(F)c(F)cc(F)c1F)Nc1cc[nH]c(=O)c1-c1nc2cc3c(cc2n1C)CN(C)C3=O (stereo not drawn) ... > 10000 nM
CC(Cc1c(F)c(F)cc(F)c1F)Nc1cc[nH]c(=O)c1-c1nc2cc3c(cc2n1C)C(=O)N(C)C3 (stereo not drawn) [Compound 43a] ... > 10000 nM
Cc1ccc(F)cc1CC(C)Nc1cc[nH]c(=O)c1-c1nc2cc3c(cc2[nH]1)CN(C)C3=O (stereo not drawn) ... 37 nM
CC(Cc1c(F)c(F)cc(F)c1F)Nc1cc[nH]c(=O)c1-c1nc2cc3c(cc2[nH]1)C(=O)N(C)C3 (stereo not drawn) ... 18 nM
CC(Cc1c(F)c(F)cc(F)c1F)Nc1cc[nH]c(=O)c1-c1nc2cc3c(cc2[nH]1)C(=O)N(C)C3=O (stereo not drawn) ... > 10000 nM
COc1cc([C@@H]2c3cc4c(cc3[C@H](O)[C@H]3COC(=O)[C@@H]23)OCO4)cc(OC)c1OC (racemic) [PPP, reference compound] ... > 10000 nM
CC(Cc1cc(F)ccc1F)Nc1cc[nH]c(=O)c1-c1nc2cc3c(cc2[nH]1)CN(C)C3=O (stereo not drawn) ... 25 nM
C[C@@H](Cc1cc(F)ccc1F)Nc1cc[nH]c(=O)c1-c1nc2cc3c(cc2[nH]1)C(=O)N(C)C3=O ... > 300 nM

Next compound, please.
Data request: Query (compound): CC(Cc1cc(F)ccc1F)Nc1cc[nH]c(=O)c1-c1nc2cc3c(cc2[nH]1)C(=O)N(CC(O)CO)C3=O (stereo not drawn) ; field requested: IC50
Data returned: 14 nM

---

system: K299 lymphoma cells; test: Cellular assay, 3 day cell viability (WST-1); format: cell-based; settings: 72 h, 3 days, read-out: GTx-K299 IC50
The following compounds are listed with their measured IC50 values.
Output spec: scalar in µM, unitless text.

C[C@@H](Cc1cc(F)ccc1F)Nc1cc[nH]c(=O)c1-c1nc2cc3c(cc2[nH]1)C(=O)N(C)C3=O ... 0.784
CC(Cc1cc(F)ccc1F)Nc1cc[nH]c(=O)c1-c1nc2cc3c(cc2[nH]1)C(=O)N(C(C)C)C3=O (stereo not drawn) ... 1.83
CC(Cc1cc(F)ccc1F)Nc1cc[nH]c(=O)c1-c1nc2cc3c(cc2[nH]1)CN(C(C)C)C3=O (stereo not drawn) ... 1.83

Data request: Query (compound): COc1cc([C@@H]2c3cc4c(cc3[C@H](O)[C@H]3COC(=O)[C@@H]23)OCO4)cc(OC)c1OC (racemic) [PPP, reference compound] ; field requested: IC50
Data returned: 0.196

---

molecular target: ALK (Homo sapiens (Human), UniProt Q9UM73); experiment: In vitro kinase activity assay (LANCE TR-FRET); type: biochemical; conditions: read-out: ALK IC50;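 note: kinase reactions with ATP and a poly-GT peptide substrate, phosphorylated product read by time-resolved FRET, 11-point curve from 10^−11 to 10^−5 M, DMSO as negative control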
Sequence (Q9UM73 19-1620): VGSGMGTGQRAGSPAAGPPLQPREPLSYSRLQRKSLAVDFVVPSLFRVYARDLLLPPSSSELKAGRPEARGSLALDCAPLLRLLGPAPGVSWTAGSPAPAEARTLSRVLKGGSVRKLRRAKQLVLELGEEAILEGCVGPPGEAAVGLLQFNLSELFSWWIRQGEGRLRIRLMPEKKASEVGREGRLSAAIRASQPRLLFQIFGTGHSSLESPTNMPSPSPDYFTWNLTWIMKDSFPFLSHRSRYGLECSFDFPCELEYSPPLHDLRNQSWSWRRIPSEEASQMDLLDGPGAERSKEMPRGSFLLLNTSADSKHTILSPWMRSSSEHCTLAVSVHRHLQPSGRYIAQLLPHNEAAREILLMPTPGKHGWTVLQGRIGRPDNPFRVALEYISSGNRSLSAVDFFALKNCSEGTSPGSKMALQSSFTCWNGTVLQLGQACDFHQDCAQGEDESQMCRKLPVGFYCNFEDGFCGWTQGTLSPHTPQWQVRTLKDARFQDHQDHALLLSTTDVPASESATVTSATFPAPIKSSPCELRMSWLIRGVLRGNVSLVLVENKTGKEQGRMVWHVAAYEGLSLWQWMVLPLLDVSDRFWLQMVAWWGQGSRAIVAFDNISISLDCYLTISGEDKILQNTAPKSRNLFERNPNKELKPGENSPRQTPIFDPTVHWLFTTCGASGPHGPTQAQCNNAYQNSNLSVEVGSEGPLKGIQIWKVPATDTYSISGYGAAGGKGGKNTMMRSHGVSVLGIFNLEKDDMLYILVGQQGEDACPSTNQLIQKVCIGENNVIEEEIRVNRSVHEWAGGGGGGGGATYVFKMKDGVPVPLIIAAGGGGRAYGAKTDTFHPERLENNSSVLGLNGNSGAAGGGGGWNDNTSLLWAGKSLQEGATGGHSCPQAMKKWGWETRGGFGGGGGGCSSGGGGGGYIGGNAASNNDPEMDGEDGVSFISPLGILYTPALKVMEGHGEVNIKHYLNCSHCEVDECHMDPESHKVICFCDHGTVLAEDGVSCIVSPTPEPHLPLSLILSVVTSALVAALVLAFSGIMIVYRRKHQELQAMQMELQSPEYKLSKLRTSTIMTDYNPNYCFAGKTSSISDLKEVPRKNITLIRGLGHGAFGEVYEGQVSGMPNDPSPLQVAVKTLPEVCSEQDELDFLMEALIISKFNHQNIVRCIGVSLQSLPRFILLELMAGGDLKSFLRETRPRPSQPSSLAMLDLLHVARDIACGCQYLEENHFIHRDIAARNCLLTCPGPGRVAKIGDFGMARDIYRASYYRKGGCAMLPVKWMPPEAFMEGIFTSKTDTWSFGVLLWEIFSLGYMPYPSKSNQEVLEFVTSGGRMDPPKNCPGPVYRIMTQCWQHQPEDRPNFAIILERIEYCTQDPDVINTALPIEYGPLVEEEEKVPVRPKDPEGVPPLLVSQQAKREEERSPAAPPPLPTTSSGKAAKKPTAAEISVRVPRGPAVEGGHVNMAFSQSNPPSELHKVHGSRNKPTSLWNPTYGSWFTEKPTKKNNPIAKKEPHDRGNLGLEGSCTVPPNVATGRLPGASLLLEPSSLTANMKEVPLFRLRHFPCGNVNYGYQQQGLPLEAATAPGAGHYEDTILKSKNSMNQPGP
Parameter measured: pIC50
Conceptually, pIC50 converts a concentration in mol/L into minus its log10.

C[C@@H](Cc1c(F)c(F)cc(F)c1F)Nc1cc[nH]c(=O)c1-c1nc2cc3c(cc2[nH]1)C(=O)N(c1cccnc1)C3=O ... 7.33
CC(Cc1cc(F)ccc1F)Nc1cc[nH]c(=O)c1-c1nc2cc3c(cc2[nH]1)C(=O)N(CCN(C)C)C3 (racemic) ... 8.05

Next compound, please.
Data request: Query (compound): COC1c2cc3nc(-c4c(N[C@@H](C)Cc5c(F)c(F)cc(F)c5F)cc[nH]c4=O)[nH]c3cc2C(=O)N1c1cccnc1 (stereo partly drawn) ; field requested: pIC50
Data returned: 6.76
